B1: FBXO3 (parent)
chain: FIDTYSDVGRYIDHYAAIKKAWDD

Variants of: B1
Assay: protein stability index of a GFP-peptide fusion (GPS, HEK-293T) (PSI 1-6); higher = more stable;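 note: lentivirally expressed fusions sorted by FACS into six bins by GFP to DsRed ratio, PSI derived from sequencing read proportions per bin multiplied by bin number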
Details: c terminus: a fixed tail appended
Label met when protein stability index >= 2; otherwise not met.

As a guide, the following entries are already answered.
sequence_entry="FIDTYSMVGRYIDHYAAIKKAWDD [D7M]" discrete_label=met
sequence_entry="FIDTYSDVGRYIDHYAAIKKARDD [W22R]" discrete_label="not met"
sequence_entry="FIDTYSDVGRYIDHEAAIKKAWDD [Y15E]" discrete_label="not met"
sequence_entry="PIDTYSDVGRYIDHYAAIKKAWDD [F1P]" discrete_label=met
sequence_entry="FIDTYSDVGRYIDHYAAIKKAMDD [W22M]" discrete_label="not met"

Could you please find out whether FIDLYSDVGRYIDHYAAIKKAWDD [T4L] has protein stability index that meets 2 or exceeds it? not met

Could you please find out whether FIDWYSDVGRYIDHYAAIKKAWDD [T4W] has protein stability index that meets 2 or exceeds it? not met

Could you please find out whether FIDTYSDQGRYIDHYAAIKKAWDD [V8Q] has protein stability index that meets 2 or exceeds it? not met
